- procedure-details: Acute toxicity in ip dosed CDF mouse
- Assay type: organism-based
- test-settings: in vivo
readout: LD50

Record `CC(C)C[C@H](NC(=O)[C@@H](O)[C@H](N)Cc1ccccc1)C(=O)N1CCC[C@H]1C(=O)N1CCC[C@H]1C(=O)O` . Reported LD50: > 250 mg/kg

Source: ChEMBL document CHEMBL2390859
